Just for reference, patent US9353113B2 is where these values come from.

# Study System: human ENPP2 (Homo sapiens (Human), UniProt Q13822)
Structures can show the parent of a compound that is named as a salt.
// returns Not met unless IC50 is strictly below 10 nM, in which case Met

Illustrative cases are given below, each with its answer.
[
  {
    "Compound": "CC(C)(CCCC(=O)N1CCc2c(n(Cc3cnc(C(F)(F)F)s3)c3ncccc23)C1)C(=O)O",
    "Study System": "human ENPP2 (Homo sapiens (Human), UniProt Q13822)",
    "Category": "Met"
  },
  {
    "Compound": "C[C@@H]1CN(CC(=O)N2CCc3c(n(Cc4ccc(C(F)(F)F)s4)c4ncccc34)C2)C[C@H](C)N1CC(=O)O [Example 7(41), dihydrochloride]",
    "Study System": "human ENPP2 (Homo sapiens (Human), UniProt Q13822)",
    "Category": "Met"
  },
  {
    "Compound": "COc1cc(CC(=O)N2CCc3c(n(Cc4ccc(OC(F)(F)F)cc4)c4ncccc34)C2)ccc1C(=O)O",
    "Study System": "human ENPP2 (Homo sapiens (Human), UniProt Q13822)",
    "Category": "Met"
  },
  {
    "Compound": "O=C(C[C@H]1CC[C@H](C(=O)O)CC1)N1CCc2c(n(Cc3ccc(F)cc3F)c3ncccc23)C1 [Reference Example 2, reference compound]",
    "Study System": "human ENPP2 (Homo sapiens (Human), UniProt Q13822)",
    "Category": "Not met"
  },
  {
    "Compound": "O=C(O)C1CCN(CC(=O)N2CCc3c(n(Cc4ccc(OC(F)(F)F)cc4)c4ncccc34)C2)CC1 [Example 7(3), hydrochloride]",
    "Study System": "human ENPP2 (Homo sapiens (Human), UniProt Q13822)",
    "Category": "Not met"
  },
  {
    "Compound": "C[C@]1(C(=O)O)CC[C@H](CC(=O)N2CCc3c(n(Cc4cnc(C(F)(F)F)s4)c4ncccc34)C2)CC1",
    "Study System": "human ENPP2 (Homo sapiens (Human), UniProt Q13822)",
    "Category": "Met"
  },
  {
    "Compound": "O=C(CC12CCC(C(=O)O)(CC1)C2)N1CCc2c(n(Cc3cnc(C(F)(F)F)s3)c3ncccc23)C1",
    "Study System": "human ENPP2 (Homo sapiens (Human), UniProt Q13822)",
    "Category": "Met"
  }
]

Please find the next compound below.
Request: Below 10 nM on IC50? Entry O=C(CCCC1(C(=O)O)CC1)N1CCc2c(n(Cc3ccc(C(F)(F)F)s3)c3ncccc23)C1
Result: Not met
